targetOrSystem: T1, recombinant human IL-23R/Fc chimera (R&D Systems) (human, UniProt Q5VWK5 24-355)
T1 construct: Bought; also called rhIL23RFc
T1 sequence (looked up): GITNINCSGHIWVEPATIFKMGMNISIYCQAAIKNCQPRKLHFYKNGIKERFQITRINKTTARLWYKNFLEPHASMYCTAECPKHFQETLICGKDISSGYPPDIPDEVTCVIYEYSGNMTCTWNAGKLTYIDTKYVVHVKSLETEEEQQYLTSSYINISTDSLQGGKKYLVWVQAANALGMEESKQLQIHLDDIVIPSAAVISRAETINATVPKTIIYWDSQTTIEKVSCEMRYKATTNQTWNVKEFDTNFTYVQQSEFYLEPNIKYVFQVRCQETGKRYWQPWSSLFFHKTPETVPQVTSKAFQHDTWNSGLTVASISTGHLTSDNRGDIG
measurementProtocol: competition ELISA vs IL-23
Reported Ratio IC50 to 056-53.H4E IC50 values for the following binders.

binder	Ratio IC50 to 056-53.H4E IC50
105-08-1G9 ATRIMER complex (designed binder) EPPTQKPKKIVNAKKDVVNTKMFEELKSRLDTLAQEVALLKEQQALQTVCLKGTKVHMKCFLAFTQTKTFHEASEDCISRGGTLSTPQTGSENDALYEYLRQSVGNEAEIWLGLNGSPKTDTWVDMTGARIAYKNWETEITAQPDGGFGYFGENCAVLSGAANGKWFDKRCRDQLPYICQFGIV	2.4
105-08-2A1 ATRIMER complex (designed binder) EPPTQKPKKIVNAKKDVVNTKMFEELKSRLDTLAQEVALLKEQQALQTVCLKGTKVHMKCFLAFTQTKTFHEASEDCISRGGTLSTPQTGSENDALYEYLRQSVGNEAEIWLGLNGSMRTDTWVDMTGARIAYKNWETEITAQPDGGWGYFGENCAVLSGAANGKWFDKRCRDQLPYICQFGIV	5
